assay: Serum stability (RP-HPLC AUC of intact peptide); assay type: in vitro ADME; details: human serum (25% v/v in DMEM), 37° C., 5 h, read-out: area under the curve of the peptide peak, of control (t=0 h)
Where a SMILES comes first, the peptide text is derived from it.
measurementLabel: remaining at 5 h, 100 µM (%)

- CCCC[C@@H](NC(=O)[C@H](Cc1c[nH]c2ccccc12)NC(=O)[C@@H]1CCCN1C(=O)[C@@H](N)C(C)C)C(=O)N[C@@H](CCC(=O)O)C(=O)N1CCC[C@H]1C(=O)N[C@@H](C)C(=O)N[C@@H](Cc1ccc(O)cc1)C(=O)N[C@@H](CCC(N)=O)C(=O)N[C@H](CCCNC(=N)N)C(=O)N[C@@H](Cc1ccccc1)C(=O)N[C@@H](CC(C)C)C(N)=O [D-aa KK-11, VPWxEPAYQrFL] (HELM PEPTIDE1{V.P.W.[CCCC[C@@H](N[*:1])C(=O)[*:2]].E.P.A.Y.Q.[dR].F.L.[am]}$$$$V2.0; N-terminus assumed): 97.4

----------
test: Serum stability (RP-HPLC AUC of intact peptide); format: in vitro ADME; conditions: human serum (25% v/v in DMEM), 37° C., 24 h, read-out: area under the curve of the peptide peak / peptide remaining, of control (t=0 h)
Where a SMILES comes first, the peptide text is derived from it.
measurementLabel: remaining at 24 h, 100 µM (%)

• CCCC[C@@H](NC(=O)[C@H](Cc1c[nH]c2ccccc12)NC(=O)[C@@H]1CCCN1C(=O)[C@@H](N)C(C)C)C(=O)N[C@@H](CCC(=O)O)C(=O)N1CCC[C@H]1C(=O)N[C@@H](C)C(=O)N[C@@H](Cc1ccc(O)cc1)C(=O)N[C@@H](CCC(N)=O)C(=O)N[C@H](CCCNC(=N)N)C(=O)N[C@@H](Cc1ccccc1)C(=O)N[C@@H](CC(C)C)C(N)=O [D-aa KK-11, VPWxEPAYQrFL] (HELM PEPTIDE1{V.P.W.[CCCC[C@@H](N[*:1])C(=O)[*:2]].E.P.A.Y.Q.[dR].F.L.[am]}$$$$V2.0; N-terminus assumed) = 45.3
